assay: activity coefficient (dimensionless); of the first substance listed, at infinite dilution; xn = mol fraction of the nth substance listed; details: 333.15 K; Liquid; Chromatography; x1 = 0
Measured Quantity: activity coefficient
// no unit string in output, number only

Give the reported activity coefficient for this compound. CCC[N+](=O)[O-] [1-nitropropane] + CCCOC[n+]1ccn(Cc2ccccc2)c1.N#C[N-]C#N
1.06

Give the reported activity coefficient for this compound. C1COCCO1 [1,4-dioxane] + CCCOC[n+]1ccn(Cc2ccccc2)c1.N#C[N-]C#N
0.88

Give the reported activity coefficient for this compound. CO [methanol] + CCCOC[n+]1ccn(Cc2ccccc2)c1.N#C[N-]C#N
0.4

Give the reported activity coefficient for this compound. CCC[N+](=O)[O-] [1-nitropropane] + CCCOC[n+]1ccn(C)c1.F[B-](F)(F)F
1.78

Give the reported activity coefficient for this compound. C[N+](=O)[O-] [nitromethane] + CCCOC[n+]1ccn(Cc2ccccc2)c1.F[B-](F)(F)F
0.57

Give the reported activity coefficient for this compound. CCCCCCCCCCCC [dodecane] + CCCOC[n+]1ccn(Cc2ccccc2)c1.F[B-](F)(F)F
421

Give the reported activity coefficient for this compound. CCCCCCC [heptane] + CCCCCCCCn1cc[n+](COCCCOC[n+]2ccn(CCCCCCCC)c2C)c1C.N#C[N-]C#N.N#C[N-]C#N
8.65

Give the reported activity coefficient for this compound. CCC(=O)CC [pentan-3-one] + CCCOC[n+]1ccn(C)c1.O=S(=O)([N-]S(=O)(=O)C(F)(F)F)C(F)(F)F
0.69
